I'd be grateful if you could share measured Activity for these entries.
System: Staphylococcus aureus
procedure-details: Inhibition of Staphylococcus aureus MurF using D-Ala-D-Ala/UMtri-L-Lys as substrate assessed as residual activity at 100 uM after 15 mins by Malachite green method
Just the number in %, nothing appended.

Exam item: Record Cl.N#Cc1c(NC(=O)c2cc(S(=O)(=O)N3CCOCC3)c(Cl)cc2Cl)sc2c1CCNC2 : what is its Activity with Staphylococcus aureus?
Marked response: 81

Exam item: Record N#Cc1c(NC(=O)c2cc(S(=O)(=O)N3CCCC(C(=O)O)C3)c(Cl)cc2Cl)sc2c1CCCC2 (stereo not drawn) : what is its Activity with Staphylococcus aureus?
Marked response: 102

Exam item: Record N#Cc1c(NC(=O)c2cc(S(=O)(=O)N3CCOCC3)c(Cl)cc2Cl)sc2c1CCCC2 : what is its Activity with Staphylococcus aureus?
Marked response: 107

Exam item: Record N#Cc1c(NC(=O)c2cc(S(=O)(=O)N3CCOCC3)c(Cl)cc2Cl)sc2c1CCN(Cc1ccc(O)c(O)c1)C2 : what is its Activity with Staphylococcus aureus?
Marked response: 64

Exam item: Record CC1CCN(S(=O)(=O)c2cc(C(=O)Nc3sc4c(c3C#N)CCCC4)c(Cl)cc2Cl)CC1 : what is its Activity with Staphylococcus aureus?
Marked response: 80

Exam item: Record CCOC(=O)C1CCCN(S(=O)(=O)c2cc(C(=O)Nc3sc4c(c3C#N)CCCC4)c(Cl)cc2Cl)C1 (stereo not drawn) : what is its Activity with Staphylococcus aureus?
Marked response: 93

Exam item: Record N#Cc1ccc(N2CCc3c(sc(NC(=O)c4cc(S(=O)(=O)N5CCOCC5)c(Cl)cc4Cl)c3C#N)C2)cc1 : what is its Activity with Staphylococcus aureus?
Marked response: 85

Exam item: Record N#Cc1c(NC(=O)c2cc(S(=O)(=O)N3CCOCC3)c(Cl)cc2Cl)sc2c1CCN(CC1CCCCC1)C2 : what is its Activity with Staphylococcus aureus?
Marked response: 64
